Where do these numbers come from? They come from ChEMBL document CHEMBL4196004.

test system: SUM149PT; assay: Antiproliferative activity against human SUM149PT cells after 48 hrs by SRB assay; assay type: functional, cell-based
Below, each of the compounds is paired with its reported IC50 value.
Please state the figure in µM; there is no need to write the unit.

The following compounds have reported results that may help.
Exam item: For the compound CC#C[C@]1(O)CC[C@H]2[C@@H]3CCC4=CC(=O)CCC4=C3[C@@H](c3ccc(N(C)C(=O)c4ccc(C)cc4)cc3)C[C@@]21C , report IC50.
Marked response: 5

Exam item: For the compound CC#C[C@]1(O)CC[C@H]2[C@@H]3CCC4=CC(=O)CCC4=C3[C@@H](c3ccc(N(C)C(=O)c4ccc(C)c(Cl)c4)cc3)C[C@@]21C , report IC50.
Marked response: 4.7

Further cases:
Exam item: For the compound CC#C[C@]1(O)CC[C@H]2[C@@H]3CCC4=CC(=O)CCC4=C3[C@@H](c3ccc(N(C)C(=O)c4ccc(Cl)c(Cl)c4)cc3)C[C@@]21C , report IC50.
Marked response: 3.6

Exam item: For the compound CC#C[C@]1(O)CC[C@H]2[C@@H]3CCC4=CC(=O)CCC4=C3[C@@H](c3ccc(N(C)C)cc3)C[C@@]21C , report IC50.
Marked response: 15

Exam item: For the compound CC#C[C@]1(O)CC[C@H]2[C@@H]3CCC4=CC(=O)CCC4=C3[C@@H](c3ccc(N(C)C(=O)c4cccs4)cc3)C[C@@]21C , report IC50.
Marked response: 12.5

* * *

test system: HCC1937; assay: Antiproliferative activity against human HCC1937 cells after 48 hrs by SRB assay; format: functional, cell-based; conditions: HCC1937, 48 h
Below, each of the compounds is paired with its reported log10(IC50) value.
Heads up: the numbers are on a log10 scale; they represent IC50 in µM.

The following compounds have reported results that may help.
Exam item: For the compound COc1cccc2c1C(=O)c1c(O)c3c(c(O)c1C2=O)C[C@@](O)(C(=O)CO)C[C@@H]3O[C@H]1C[C@H](N)[C@H](O)[C@H](C)O1 , report log10(IC50).
Marked response: -0.36

Exam item: For the compound CC#C[C@]1(O)CC[C@H]2[C@@H]3CCC4=CC(=O)CCC4=C3[C@@H](c3ccc(N(C)C(=O)c4ccc(C)c(C)c4)cc3)C[C@@]21C , report log10(IC50).
Marked response: 0.79

Further cases:
Exam item: For the compound CC#C[C@]1(O)CC[C@H]2[C@@H]3CCC4=CC(=O)CCC4=C3[C@@H](c3ccc(N(C)C(=O)c4ccc(Cl)cc4)cc3)C[C@@]21C , report log10(IC50).
Marked response: 0.99

Exam item: For the compound CC#C[C@]1(O)CC[C@H]2[C@@H]3CCC4=CC(=O)CCC4=C3[C@@H](c3ccc(N(C)C(=O)c4ccc(C(C)C)cc4)cc3)C[C@@]21C , report log10(IC50).
Marked response: 0.62

Exam item: For the compound CC#C[C@]1(O)CC[C@H]2[C@@H]3CCC4=CC(=O)CCC4=C3[C@@H](c3ccc(N(C)C(=O)c4ccc(C)cc4)cc3)C[C@@]21C , report log10(IC50).
Marked response: 0.96

* * *

tested on: SUM149PT; experiment: Antiproliferative activity against human SUM149PT cells after 48 hrs by SRB assay; format: functional, cell-based
pIC50: −log10 of the molar value.
Below, each of the molecules is paired with its reported pIC50 value.

Exam item: For the molecule CC#C[C@]1(O)CC[C@H]2[C@@H]3CCC4=CC(=O)CCC4=C3[C@@H](c3ccc(N(C)C(=O)c4ccncc4)cc3)C[C@@]21C , report pIC50.
Marked response: < 4.70

Exam item: For the molecule CC#C[C@]1(O)CC[C@H]2[C@@H]3CCC4=CC(=O)CCC4=C3[C@@H](c3ccc(N(C)C(=O)c4ccc(Cl)c(C(F)(F)F)c4)cc3)C[C@@]21C , report pIC50.
Marked response: < 4.70

Further cases:
Exam item: For the molecule CC#C[C@]1(O)CC[C@H]2[C@@H]3CCC4=CC(=O)CCC4=C3[C@@H](c3ccc(N(C)C(=O)c4ccccc4Cl)cc3)C[C@@]21C , report pIC50.
Marked response: < 4.70

* * *

Below, each of the compounds is paired with its reported IC50 value.
tested on: SUM149PT; test: Antiproliferative activity against human SUM149PT cells after 48 hrs by SRB assay; format: functional, cell-based
Please state the figure in µM; there is no need to write the unit.

The following compounds have reported results that may help.
Exam item: For the compound CC#C[C@]1(O)CC[C@H]2[C@@H]3CCC4=CC(=O)CCC4=C3[C@@H](c3ccc(N(C)C(=O)c4ccccc4)cc3)C[C@@]21C , report IC50.
Marked response: 10.5

Exam item: For the compound CC#C[C@]1(O)CC[C@H]2[C@@H]3CCC4=CC(=O)CCC4=C3[C@@H](c3ccc(N(C)C(=O)c4ccc(OC)cc4)cc3)C[C@@]21C , report IC50.
Marked response: 12

Here is another compound to look at.
Exam item: For the compound CC#C[C@]1(O)CC[C@H]2[C@@H]3CCC4=CC(=O)CCC4=C3[C@@H](c3ccc(N(C)C(=O)c4cccc(C)c4)cc3)C[C@@]21C , report IC50.
Marked response: 5

* * *

test system: HCC1937; assay: Antiproliferative activity against human HCC1937 cells after 48 hrs by SRB assay; assay type: functional, cell-based; details: HCC1937, 48 h
// NB: equality with 9 µM counts as Not met; only IC50 strictly below is Met

Exam item: Dear reviewer, please state whether CC#C[C@]1(O)CC[C@H]2[C@@H]3CCC4=CC(=O)CCC4=C3[C@@H](c3ccc(N(C)C(C)=O)cc3)C[C@@]21C has IC50 strictly beneath 9 µM.
Marked response: Not met

Exam item: Dear reviewer, please state whether CC#C[C@]1(O)CC[C@H]2[C@@H]3CCC4=CC(=O)CCC4=C3[C@@H](c3ccc(N(C)C(=O)c4ccc(Cl)c(Cl)c4)cc3)C[C@@]21C has IC50 strictly beneath 9 µM.
Marked response: Met

Exam item: Dear reviewer, please state whether CC#C[C@]1(O)CC[C@H]2[C@@H]3CCC4=CC(=O)CCC4=C3[C@@H](c3ccc(N(C)S(=O)(=O)c4ccccc4)cc3)C[C@@]21C has IC50 strictly beneath 9 µM.
Marked response: Not met

Exam item: Dear reviewer, please state whether CC#C[C@]1(O)CC[C@H]2[C@@H]3CCC4=CC(=O)CCC4=C3[C@@H](c3ccc(N(C)C(=O)c4ccccc4Cl)cc3)C[C@@]21C has IC50 strictly beneath 9 µM.
Marked response: Not met

Exam item: Dear reviewer, please state whether CC#C[C@]1(O)CC[C@H]2[C@@H]3CCC4=CC(=O)CCC4=C3[C@@H](c3ccc(N(C)C(=O)c4ccc5ccccc5c4)cc3)C[C@@]21C has IC50 strictly beneath 9 µM.
Marked response: Met

Exam item: Dear reviewer, please state whether CC#C[C@]1(O)CC[C@H]2[C@@H]3CCC4=CC(=O)CCC4=C3[C@@H](c3ccc(N(C)C)cc3)C[C@@]21C has IC50 strictly beneath 9 µM.
Marked response: Not met

Exam item: Dear reviewer, please state whether CC#C[C@]1(O)CC[C@H]2[C@@H]3CCC4=CC(=O)CCC4=C3[C@@H](c3ccc(N(C)C(=O)c4ccc(C(C)(C)C)cc4)cc3)C[C@@]21C has IC50 strictly beneath 9 µM.
Marked response: Met

Exam item: Dear reviewer, please state whether CC#C[C@]1(O)CC[C@H]2[C@@H]3CCC4=CC(=O)CCC4=C3[C@@H](c3ccc(N(C)C(=O)c4ccc(-c5ccccc5)cc4)cc3)C[C@@]21C has IC50 strictly beneath 9 µM.
Marked response: Not met

Exam item: Dear reviewer, please state whether CC#C[C@]1(O)CC[C@H]2[C@@H]3CCC4=CC(=O)CCC4=C3[C@@H](c3ccc(N(C)C(=O)c4ccccn4)cc3)C[C@@]21C has IC50 strictly beneath 9 µM.
Marked response: Not met

Exam item: Dear reviewer, please state whether CC#C[C@]1(O)CC[C@H]2[C@@H]3CCC4=CC(=O)CCC4=C3[C@@H](c3ccc(N(C)C(=O)c4cccc(Cl)c4)cc3)C[C@@]21C has IC50 strictly beneath 9 µM.
Marked response: Not met

Further cases:
Exam item: Dear reviewer, please state whether CC#C[C@]1(O)CC[C@H]2[C@@H]3CCC4=CC(=O)CCC4=C3[C@@H](c3ccc(NC)cc3)C[C@@]21C has IC50 strictly beneath 9 µM.
Marked response: Not met

Exam item: Dear reviewer, please state whether CC#C[C@]1(O)CC[C@H]2[C@@H]3CCC4=CC(=O)CCC4=C3[C@@H](c3ccc(N(C)C(=O)c4ccncc4)cc3)C[C@@]21C has IC50 strictly beneath 9 µM.
Marked response: Not met

Exam item: Dear reviewer, please state whether CC#C[C@]1(O)CC[C@H]2[C@@H]3CCC4=CC(=O)CCC4=C3[C@@H](c3ccc(N(C)C(=O)c4ccccc4)cc3)C[C@@]21C has IC50 strictly beneath 9 µM.
Marked response: Not met

Exam item: Dear reviewer, please state whether CC#C[C@]1(O)CC[C@H]2[C@@H]3CCC4=CC(=O)CCC4=C3[C@@H](c3ccc(N(C)S(=O)(=O)c4ccc(C)cc4)cc3)C[C@@]21C has IC50 strictly beneath 9 µM.
Marked response: Not met
